B1: TPR t1 (parent)
chain: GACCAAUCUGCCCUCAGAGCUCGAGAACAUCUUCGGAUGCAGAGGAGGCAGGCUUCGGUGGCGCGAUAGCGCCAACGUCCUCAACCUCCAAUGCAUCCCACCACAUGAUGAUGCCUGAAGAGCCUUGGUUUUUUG

# Variants of: B1
# procedure summary: polymerase ribozyme fitness, log enrichment relative to wild type (log ratio); higher = more active; in vitro selection for triplet polymerase activity
experimental endpoint: polymerase ribozyme fitness (log ratio)
Answer with a bare number; do not write a unit.

Some solved cases for reference:
{"columns": ["sequence string", "experimental endpoint", "data value"],
 "data": [
  ["GACCAAUCUGCGCUCAGAGCUCGAGAACAUCUUCGGAUGCAGAGUAGGCAGGCUUCGGUGGCGCGAUAGCGACAACGUCCUCAACCUCCAAUGCAUCCCACCACAUGAUGAUGCCUGAAGAGCCUUAGUUUUUUG", "polymerase ribozyme fitness (log ratio)", -2.17],
  ["GACCAAUCUGCCCUCAGAGCUCGAGAACAUCUUCGGAUGCAGAGUAGGCAGGCUUCGGUGGCGCGAUAGCGCCAACGUCCUCAACCUCCCAUGCAUCCCACCACGAGAUGAUGCCUGAAGAGCCUUGGUGAUUUG", "polymerase ribozyme fitness (log ratio)", -2.74],
  ["GACCAAUCUGCCCUCAGAGCUCGAGAACAUCUUCGGAUGCAGAGGACGCAGGCUUCGGUGACGCGAUAACGCCAACGUCCUCAACCUCCAAUGCAUCCCACCACAUGAUGCUGCCAGAAGAGCCUUGGUUUUUUG", "polymerase ribozyme fitness (log ratio)", -6.11]
]}

Request: Any idea what polymerase ribozyme fitness (log ratio) was measured for "GACCAAUCUGCCCUCAGAGCUCGAGAUCAUCUUCGGAUGCAGAGGAGGCAGGCUUCGGUGACGCGAUAGCGCCAACGUCCUCAACCUCCAAUGCAUCCCACCACAUGAUGAUGCCUGAAGAGCCUUGGUUUUUUG" ?
Response: -2.77

Reference source: the RNAGym collection of RNA variant scans (doi:10.1073/pnas.2313332121)
